target: T1, integrin αVβ5 (UniProt P06756 31-992; P18084 24-719); assay: ELISA, integrin coated, anti-MICA-HRP
T1 construct: Coated on the ELISA plate
T1 sequence (P06756 31-992, chain 1 of 2): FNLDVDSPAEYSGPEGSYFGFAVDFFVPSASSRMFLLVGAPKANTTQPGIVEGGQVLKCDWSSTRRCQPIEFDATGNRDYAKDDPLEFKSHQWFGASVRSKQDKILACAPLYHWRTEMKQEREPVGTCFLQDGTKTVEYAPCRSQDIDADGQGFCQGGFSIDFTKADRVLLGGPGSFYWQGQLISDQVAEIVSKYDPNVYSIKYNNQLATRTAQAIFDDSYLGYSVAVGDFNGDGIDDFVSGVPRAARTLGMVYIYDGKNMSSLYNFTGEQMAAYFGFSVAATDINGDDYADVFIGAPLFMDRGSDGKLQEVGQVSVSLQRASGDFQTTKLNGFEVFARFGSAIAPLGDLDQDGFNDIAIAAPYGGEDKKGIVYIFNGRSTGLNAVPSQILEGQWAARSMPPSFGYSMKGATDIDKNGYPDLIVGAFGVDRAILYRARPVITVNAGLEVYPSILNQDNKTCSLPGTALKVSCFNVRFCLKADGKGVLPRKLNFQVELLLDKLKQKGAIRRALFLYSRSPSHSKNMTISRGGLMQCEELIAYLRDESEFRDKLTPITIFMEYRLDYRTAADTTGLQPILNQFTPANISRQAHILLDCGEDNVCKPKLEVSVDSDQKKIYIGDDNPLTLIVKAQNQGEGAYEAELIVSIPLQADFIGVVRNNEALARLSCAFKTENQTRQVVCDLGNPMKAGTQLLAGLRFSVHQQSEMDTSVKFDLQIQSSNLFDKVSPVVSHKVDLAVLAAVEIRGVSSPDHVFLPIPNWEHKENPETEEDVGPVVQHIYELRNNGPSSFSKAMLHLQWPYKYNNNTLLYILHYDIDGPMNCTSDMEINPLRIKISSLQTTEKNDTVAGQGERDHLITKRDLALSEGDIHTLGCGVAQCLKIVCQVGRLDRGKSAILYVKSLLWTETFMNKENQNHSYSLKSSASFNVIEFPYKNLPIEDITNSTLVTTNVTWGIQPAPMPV
T1 sequence (P18084 24-719, chain 2 of 2): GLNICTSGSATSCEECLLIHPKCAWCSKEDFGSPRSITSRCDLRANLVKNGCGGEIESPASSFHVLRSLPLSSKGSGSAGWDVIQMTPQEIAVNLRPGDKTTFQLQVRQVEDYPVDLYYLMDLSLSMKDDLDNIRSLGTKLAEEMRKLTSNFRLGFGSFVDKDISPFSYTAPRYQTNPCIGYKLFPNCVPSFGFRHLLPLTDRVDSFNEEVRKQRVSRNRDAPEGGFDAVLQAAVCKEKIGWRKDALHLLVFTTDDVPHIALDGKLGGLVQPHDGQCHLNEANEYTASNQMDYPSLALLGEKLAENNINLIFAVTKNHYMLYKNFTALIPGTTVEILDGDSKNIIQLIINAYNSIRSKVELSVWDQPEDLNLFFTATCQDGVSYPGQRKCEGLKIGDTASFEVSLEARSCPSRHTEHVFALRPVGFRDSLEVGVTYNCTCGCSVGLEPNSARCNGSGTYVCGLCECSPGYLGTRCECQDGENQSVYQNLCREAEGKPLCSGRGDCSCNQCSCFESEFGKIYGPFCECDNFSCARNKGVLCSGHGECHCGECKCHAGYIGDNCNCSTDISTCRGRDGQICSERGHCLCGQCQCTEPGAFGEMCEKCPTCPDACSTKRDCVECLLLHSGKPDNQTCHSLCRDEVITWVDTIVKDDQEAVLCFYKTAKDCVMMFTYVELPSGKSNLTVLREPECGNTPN
reported-metric: signal/ng (signal/ng)
Give the value in signal/ng but do not write signal/ng after it.

Ask: Hello, please tell me recorded signal/ng for this one: soluble MICA generated by pKK49 (extended loop 3.3sp in loop 3) (designed binder) EPHSLRYNLTVLSWDGSVQSGFLTEVHLDGQPFLRCDRQKCRAKPQGQWAEDVLGNKTWDRETRDLTGNGKDLRMTLAHIKDQKEGLHSLQEIRVCEIHEDNSTRSSQHFYYDGELFLSQNLETKEWTMPQSSRAQTLAMNVRNFLKEDAMKTKTHYHAMHADCLQELRRYLKSGVVLRRTVPPMVNVTRSEASEGNITVTCRASGFYPWNITLSWRQDGVSLSHDTQQWGDVLPDGNGTYQTWVATRISGGSGGGSRVPRGDSDLTSGGSGGGCYMEHSGNHSTHPVPSGK
Result: 5.51

Ask: Identify the reported signal/ng for the following entry. soluble MICA generated by pKK46 (extended loop 5.1sp in loop 1) (designed binder) HHHHHHEPHSLRYNLTVLSWDGSVQSGFLTEVHLDGQPFLRCDRQKCRAKPQGQWAEDVLGNKTWDRETRDLTGNGKDLRMTLAHIKDQKEGLHSLQEIRVCEIHEDNSTRSSQHFYYDGELFLSQNLETEEWTMPQSSRAQTLAMNVRNFLKEDAMKTKTHYHAMHADCLQELRRYLKSGVVLRRTVPPMVNVTSGGSGGGSVTRGDTFTQSSGGSGGGVTCRASGFYPWNITLSWRQDGVSLSHDTQQWGDVLPDGNGTYQTWVATRICQGEEQRFTCYMEHSGNHSTHPVPSGK
Result: 25.5
